Recorded values, source PubChem BioAssay (NCI).

- procedure text: NCI Yeast Anticancer Drug Screen. Data for the CLN2oe strain (AID 163);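 further: 0% = growth of vehicle-only control cultures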
- reported conditions: S. cerevisiae CLN2oe strain, at 100.0 µM
Compounds without any hit were thinned out: in the full panel of roughly 79,000, 15% have a hit. Activity calls are given as the source filed them. No stated cut-off is given here; in the data, active means growth inhibition above about 70%; inactive means the rest.
Select the correct class. Options are active, inactive and nothing else.

Solved cases (5 shown):
CN(C)CCNC(=O)c1cccc2nc3c4ccccc4c4ccccc4c3nc12 ... active
O=C(Nn1c(-c2ccccc2)nc2ccccc2c1=O)c1ccc(Cl)cc1 ... active
COc1cc(NCCCCCNC(C)C)c2ncccc2c1Cl ... inactive
COc1ccc(CCN2C(=O)C=CC2=O)cc1OC ... active
Clc1ccc(C(c2ccc(Cl)cc2)N2CCNCC2)cc1 ... active

[ask] Hello, I am checking results. What call was entered for Cc1ccc2nc(N/N=C/c3ccc(C)s3)cc(C)c2c1 ?
[reply] active

[ask] Hi, sorry to bother you, what did the test record for CCN(CC)CCSc1c2ccccc2nc2cc(NCC(=O)Nc3ccccc3-c3ccccc3NC(=O)CNc3ccc4c(SCCN(CC)CC)c5ccccc5nc4c3)ccc12 ?
[reply] active

[ask] Could you please tell me the result logged for CNC(=O)OCc1c(COC(=O)NC)c(C)n(-c2ccc(Cl)c(Cl)c2)c1C in this assay?
[reply] active

[ask] Recorded call for CCCCCC/C(C)=N/Nc1ccc([N+](=O)[O-])cc1[N+](=O)[O-] ?
[reply] inactive

[ask] Which outcome was entered for the compound Cc1ccc(N(C=O)c2c([N+](=O)[O-])cc([N+](=O)[O-])c3c2=[N+]([O-])CN=3)cc1 in this test?
[reply] active

====

- procedure text: NCI Yeast Anticancer Drug Screen. Data for the cln2 rad14 strain (AID 165);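 further: 0% = growth equal to vehicle treated cultures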
- reported conditions: S. cerevisiae cln2 rad14 strain, at 50.0 µM, stronger effect = higher value
The panel holds about 79,000 compounds, 15% with a hit somewhere; the sample as a whole holds those more often.
Recorded growth inhibition for the following compounds
All answers are understood in %, so give the number only.

According to the records, this compound COc1cc(NCCCCCNC(C)C)c2ncccc2c1Cl displays growth inhibition of 26.8

In plain terms, O=C(c1c(F)c(F)c(F)c(F)c1F)c1c(F)c(F)c(F)c(F)c1F has a documented growth inhibition of 85.7

What the record says about Oc1ccc(Br)cc1C=Nc1cccc(C(F)(F)F)c1 : growth inhibition is 61

Data point: O=Cc1ccccc1B(O)O ; growth inhibition = 96.5

Lab note: measured growth inhibition of O=C1c2ccccc2C(=O)C1C(c1ccc(F)cc1)C1C(=O)c2ccccc2C1=O was 85.8

Record summary for O=C(Cc1ccccc1F)NC1=C(Cl)C(=O)c2ccccc2C1=O : reported growth inhibition = 24.3

Notebook: S=C1NC2=C(CSC/C2=C\c2ccc(Cl)cc2)C(c2ccc(Cl)cc2)N1 (stereo unspecified) , growth inhibition read as 95.2

====

- procedure text: NCI Yeast Anticancer Drug Screen. Data for the rad50 strain (AID 155);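 further: 0% = growth of vehicle-only cultures of the same strain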
- reported conditions: S. cerevisiae rad50 strain growth inhibition; at 33.0 µM
About 79,000 compounds went through this panel and 15% of them were active in at least one assay; those are over-represented in the sample as a whole. The source made the active and inactive calls. Cut-off read from the data, not from the text of the source: active = growth inhibition above about 70%; inactive = the rest.
Pick one and only one: active, inactive

Take a look at these entries with their results.
CN(Cc1cccc2ccccc12)Cc1cccc2ccccc12 ... inactive
Cc1ccc(Nc2n[nH]c(=S)s2)cc1C ... inactive
CCCCCCC(CCl)c1sc(-c2csc(CCNC(=O)OC(C)(C)C)n2)nc1C(=O)OC (configuration not stated) ... inactive

[ask] Which outcome was assigned to CN1CCN(c2ccc3nc(-c4ccc5nc(-c6ccc(O)cc6)[nH]c5c4)[nH]c3c2)CC1 in this test?
[reply] active

[ask] Could you kindly confirm the outcome this assay logged for Cc1c2ccncc2c(C)c2c1oc1ccccc12 ?
[reply] active

[ask] Hi, do you know how O=C(O)/C=C\C(=O)NNc1ccc(Br)cc1 came out in this test?
[reply] active
